Target: M-phase inducer phosphatase 1 (Homo sapiens, UniProt P30304)
Sequence (P30304 whole entry): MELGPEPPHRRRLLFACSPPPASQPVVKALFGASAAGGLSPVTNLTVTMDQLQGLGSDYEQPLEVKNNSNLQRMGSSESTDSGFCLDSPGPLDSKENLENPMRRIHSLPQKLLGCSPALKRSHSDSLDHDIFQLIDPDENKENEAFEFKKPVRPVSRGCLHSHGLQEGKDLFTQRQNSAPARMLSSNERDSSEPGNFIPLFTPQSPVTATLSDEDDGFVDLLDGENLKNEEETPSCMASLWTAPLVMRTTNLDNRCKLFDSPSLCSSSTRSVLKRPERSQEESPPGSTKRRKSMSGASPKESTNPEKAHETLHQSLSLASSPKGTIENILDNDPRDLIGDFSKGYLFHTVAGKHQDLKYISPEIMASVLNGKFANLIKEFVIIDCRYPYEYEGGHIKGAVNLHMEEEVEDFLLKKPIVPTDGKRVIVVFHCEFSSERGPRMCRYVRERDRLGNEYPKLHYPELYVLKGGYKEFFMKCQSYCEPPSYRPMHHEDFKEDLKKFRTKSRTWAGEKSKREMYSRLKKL
Readout Label: IC50

GET /values?readout=IC50&item= CC1(CC(O)C2=CC(=O)OC2O)CCCCC1 (stereo unspecified)
> 300 µM
